Measured values drawn from patent US5252562A for this set.

# experimental_protocol: solubility
# Type: physicochemical
# test_context: organic solvent or mixture; water/ethanol 4:1 mixture
metric_name: solubility (µg/mL)
Hi! Could you send only the number? It should be in µg/mL, unit omitted.

In: solubility lookup needed for CC(=O)N(O)Cc1ccsc1 [Example 1, N-hydroxy-N-(thien-3-yl)methyl-acetamide] , thanks.
Out: 3000
